Origin of measurements: ChEMBL document CHEMBL1201862

We begin with a simple list: items and their reported GI50.
# Tested on: HCT-15

compound	GI50
CCOC(=O)COS(=O)(=O)C(F)(F)F	18.5 µM
CCC(O)(Cc1ccc(OC)cc1)c1ccc(OC)cc1 (stereo not drawn)	> 100 µM
Brc1cccc(/C=N/C23CC4CC(CC(C4)C2)C3)c1	> 100 µM
CCN(CC)C(=O)COc1cc2c(O)c3c(O)c(C)c4c(c13)C(=O)C(C)(OC=CC(OC)C(C)C(OC(C)=O)C(C)C(O)C(C)C(O)C(C)C=CC=C(C)C(=O)N2)O4 (stereo not drawn)	> 100 µM
CCOC(=O)c1cc(=O)c2ccnc3c2n1CCS3	> 100 µM
CCOC(=O)c1sc2nc(SC)nc(Nc3ccc4c(c3)OCCCO4)c2c1N	10.9 µM
COCC(=O)OC1CCn2c1nc1c2C(=O)C(C)=C(NC(C)=O)C1=O (stereo not drawn)	14.4 µM
CCNC(=O)C#CC(=O)NCC	> 42.6 µM
